Below is a list of entries, each paired with its recorded binding signal (PBM E-score (-0.5 to 0.5)) value.
Target: atf-7 (C07G2.2) (Caenorhabditis elegans) (UniProt Q86MD3)
Sequence (Q86MD3 339-508): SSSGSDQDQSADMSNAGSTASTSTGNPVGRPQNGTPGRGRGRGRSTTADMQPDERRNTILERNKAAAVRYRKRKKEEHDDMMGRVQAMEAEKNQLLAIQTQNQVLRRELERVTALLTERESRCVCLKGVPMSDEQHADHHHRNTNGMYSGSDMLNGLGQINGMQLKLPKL
Please respond with just the number, no unit label.

Solved entries:
{"columns": ["recordSequence", "studyTarget", "recordedValue"],
 "data": [
  ["TGACGTCA (double strand) [8-mer TGACGTCA]", "atf-7 (C07G2.2) (Caenorhabditis elegans) (UniProt Q86MD3)", 0.5],
  ["AATGACGT (double strand) [8-mer AATGACGT]", "atf-7 (C07G2.2) (Caenorhabditis elegans) (UniProt Q86MD3)", 0.497],
  ["ATGACGTC (double strand) [8-mer ATGACGTC]", "atf-7 (C07G2.2) (Caenorhabditis elegans) (UniProt Q86MD3)", 0.497]
]}

Recorded binding signal (PBM E-score (-0.5 to 0.5)) (sequence ATACGTCA (double strand) [8-mer ATACGTCA] ): 0.494

Recorded binding signal (PBM E-score (-0.5 to 0.5)) (sequence TGACGTAA (double strand) [8-mer TGACGTAA] ): 0.495

Recorded binding signal (PBM E-score (-0.5 to 0.5)) (sequence ATGACGTA (double strand) [8-mer ATGACGTA] ): 0.498

Recorded binding signal (PBM E-score (-0.5 to 0.5)) (sequence ATGACGTG (double strand) [8-mer ATGACGTG] ): 0.499

Recorded binding signal (PBM E-score (-0.5 to 0.5)) (sequence ACGTCATG (double strand) [8-mer ACGTCATG] ): 0.496
